Measured values drawn from patent US20230002496A1 for this set.

Target: T1, human GM-CSFRα, full length on cells (human, UniProt P15509 23-400)
T1 sequence: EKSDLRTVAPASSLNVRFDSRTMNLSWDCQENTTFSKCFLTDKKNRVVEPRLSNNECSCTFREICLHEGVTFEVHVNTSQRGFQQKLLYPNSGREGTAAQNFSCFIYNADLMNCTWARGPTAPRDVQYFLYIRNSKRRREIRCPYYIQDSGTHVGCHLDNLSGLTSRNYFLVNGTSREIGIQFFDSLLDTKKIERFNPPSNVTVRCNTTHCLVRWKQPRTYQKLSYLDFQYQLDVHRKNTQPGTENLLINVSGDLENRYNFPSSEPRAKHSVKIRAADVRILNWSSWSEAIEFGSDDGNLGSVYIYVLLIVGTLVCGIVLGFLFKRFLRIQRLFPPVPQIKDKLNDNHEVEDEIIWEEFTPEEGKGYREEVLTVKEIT
Assay: cell-based or functional assay
REPORTED METRIC: IC50, TF-1 cell proliferation
Report field: quantity (unit follows the number).

Answered cases to consult:
E35-scFv HT30G (scFv, V domains shown) VH: QMQLVQSGAEVKKPGASVKVSCKVSGYTLGELSIHWVRQAPGKGLEWMGGFDPEDGETIYAQKFQGRVTMTGDTSTDTAYLELSSLRSEDTALYYCATGRYTSLATTYGFDYWGQGTLVTVSS VL: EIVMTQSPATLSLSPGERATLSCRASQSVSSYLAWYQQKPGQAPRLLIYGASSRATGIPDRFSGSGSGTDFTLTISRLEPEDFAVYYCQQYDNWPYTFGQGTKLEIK | 0.199 µg/mL
E35-scFv LA51P (scFv, V domains shown) VH: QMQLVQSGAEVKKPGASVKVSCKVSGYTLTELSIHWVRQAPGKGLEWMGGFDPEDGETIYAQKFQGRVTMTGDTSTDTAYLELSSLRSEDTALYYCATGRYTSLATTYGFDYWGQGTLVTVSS VL: EIVMTQSPATLSLSPGERATLSCRASQSVSSYLAWYQQKPGQAPRLLIYGPSSRATGIPDRFSGSGSGTDFTLTISRLEPEDFAVYYCQQYDNWPYTFGQGTKLEIK | 2.1 µg/mL

For the next question, use this binder.
[in] State the recorded IC50, TF-1 cell proliferation for this entry: E35-scFv LD92A (scFv, V domains shown) VH: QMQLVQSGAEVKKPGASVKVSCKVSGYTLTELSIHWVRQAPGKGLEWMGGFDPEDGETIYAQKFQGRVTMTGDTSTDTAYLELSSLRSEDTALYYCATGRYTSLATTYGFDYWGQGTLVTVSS VL: EIVMTQSPATLSLSPGERATLSCRASQSVSSYLAWYQQKPGQAPRLLIYGASSRATGIPDRFSGSGSGTDFTLTISRLEPEDFAVYYCQQYANWPYTFGQGTKLEIK
[out] 0.282 µg/mL
